Below are Ki values measured for Procathepsin L (Homo sapiens, UniProt P07711).

Qu. What value of Ki on Procathepsin L (Homo sapiens, UniProt P07711) does CC(=O)/C=C/[C@H](CCc1ccccc1)NC(=O)[C@H](Cc1ccccc1)NC(=O)c1ccc2c(c1)OCCO2 have?
Ans. 78.2 nM

Qu. Param readout= Ki; system= Procathepsin L (Homo sapiens, UniProt P07711); entry= CC(=O)/C=C/[C@H](CCc1ccccc1)NC(=O)[C@H](Cc1ccccc1)NC(=O)c1cc(F)cc(F)c1 ; returns value.
Ans. 14.8 nM

Qu. Under Procathepsin L (Homo sapiens, UniProt P07711): Ki value of CC(=O)/C=C/[C@H](CCc1ccccc1)NC(=O)[C@H](Cc1ccccc1)NC(=O)c1ccc(C(F)(F)F)cc1 ?
Ans. 4.1 nM

Qu. Item CC(=O)/C=C/[C@H](CCc1ccccc1)NC(=O)[C@H](Cc1ccccc1)NC(=O)c1ccc(F)cc1 with Procathepsin L (Homo sapiens, UniProt P07711) - Ki?
Ans. 1.5 nM

###

TARGET DESC: Procathepsin L (Homo sapiens)
PROTOCOL TEXT: Inhibition of human Cathepsin L assessed as first-order rate constant using Cbz-Phe-Arg-AMC as substrate by fluorescence assay
Sequence (P07711 114-333 limits assumed): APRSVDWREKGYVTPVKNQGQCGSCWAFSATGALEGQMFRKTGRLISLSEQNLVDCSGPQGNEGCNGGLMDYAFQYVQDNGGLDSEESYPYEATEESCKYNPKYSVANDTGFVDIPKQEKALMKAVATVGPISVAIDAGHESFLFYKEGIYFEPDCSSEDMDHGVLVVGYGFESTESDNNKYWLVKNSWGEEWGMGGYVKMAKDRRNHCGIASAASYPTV
// boundary case: Kinact equal to 0.002 min⁻¹ maps to class 0; strictly smaller maps to class 1

Qu. Lab note: confirm whether the reported Kinact for this molecule is below 0.002 min⁻¹, equality not counting. molecule: CC(=O)/C=C/[C@H](CCc1ccccc1)NC(=O)[C@H](Cc1ccccc1)NC(=O)c1ccc(C(F)(F)F)cc1
Ans. class 1

Qu. Strictly below 0.002 min⁻¹ in Kinact? CCC(=O)/C=C/[C@H](CCc1ccccc1)NC(=O)[C@H](Cc1ccccc1)NC(=O)OCc1ccccc1
Ans. class 0

Qu. Answer whether the molecule CC(=O)/C=C/[C@H](CCc1ccccc1)NC(=O)[C@H](Cc1ccccc1)NC(=O)c1ccc(Cl)cc1 has Kinact strictly less than 0.002 min⁻¹
Ans. class 1

Qu. Confirm or reject: Kinact of CC(=O)/C=C/[C@H](CCc1ccccc1)NC(=O)[C@H](Cc1ccccc1)NC(=O)c1ccccc1F lies strictly below 0.002 min⁻¹
Ans. class 1

Qu. I'd appreciate it if you could check whether CC(=O)/C=C/[C@H](CCc1ccccc1)NC(=O)[C@H](Cc1ccccc1)NC(=O)N1CCOCC1 has Kinact smaller than 0.002 min⁻¹.
Ans. class 0

Qu. Identify whether the molecule CC(=O)/C=C/[C@H](CCc1ccccc1)NC(=O)[C@H](Cc1ccccc1)NC(=O)c1ccc(F)cc1F records Kinact below 0.002 min⁻¹.
Ans. class 1

Qu. API: query returns whether the molecule falls strictly under 0.002 min⁻¹ in Kinact. Query: CC(=O)/C=C/[C@H](CCc1ccccc1)NC(=O)[C@H](Cc1ccccc1)NC(=O)c1ccc2c(c1)OCO2
Ans. class 1
